# testSystem: T1, C3b (human, UniProt P01024 23-667; P01024 749-1663)
# T1 construct: also called soluble C3b; human C3b
# T1 sequence (P01024 23-667 limits assumed, chain 1 of 2): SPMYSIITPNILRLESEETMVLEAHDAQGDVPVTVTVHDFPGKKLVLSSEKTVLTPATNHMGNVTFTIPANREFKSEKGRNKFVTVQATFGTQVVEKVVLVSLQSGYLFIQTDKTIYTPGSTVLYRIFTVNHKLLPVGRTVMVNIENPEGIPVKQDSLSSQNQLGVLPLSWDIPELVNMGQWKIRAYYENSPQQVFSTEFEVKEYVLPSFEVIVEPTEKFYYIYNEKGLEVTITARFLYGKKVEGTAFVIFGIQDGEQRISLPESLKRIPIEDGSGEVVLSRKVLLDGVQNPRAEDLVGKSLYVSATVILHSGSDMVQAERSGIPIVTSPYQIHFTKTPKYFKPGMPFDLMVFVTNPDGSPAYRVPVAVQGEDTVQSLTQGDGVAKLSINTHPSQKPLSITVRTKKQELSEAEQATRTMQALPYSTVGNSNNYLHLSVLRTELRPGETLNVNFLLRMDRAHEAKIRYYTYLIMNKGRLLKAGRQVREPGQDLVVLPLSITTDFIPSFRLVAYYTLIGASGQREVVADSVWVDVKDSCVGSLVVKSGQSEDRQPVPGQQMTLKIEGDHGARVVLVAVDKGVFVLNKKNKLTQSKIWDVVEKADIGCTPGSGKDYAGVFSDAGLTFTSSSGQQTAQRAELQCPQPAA
# T1 sequence (P01024 749-1663 limits assumed, chain 2 of 2): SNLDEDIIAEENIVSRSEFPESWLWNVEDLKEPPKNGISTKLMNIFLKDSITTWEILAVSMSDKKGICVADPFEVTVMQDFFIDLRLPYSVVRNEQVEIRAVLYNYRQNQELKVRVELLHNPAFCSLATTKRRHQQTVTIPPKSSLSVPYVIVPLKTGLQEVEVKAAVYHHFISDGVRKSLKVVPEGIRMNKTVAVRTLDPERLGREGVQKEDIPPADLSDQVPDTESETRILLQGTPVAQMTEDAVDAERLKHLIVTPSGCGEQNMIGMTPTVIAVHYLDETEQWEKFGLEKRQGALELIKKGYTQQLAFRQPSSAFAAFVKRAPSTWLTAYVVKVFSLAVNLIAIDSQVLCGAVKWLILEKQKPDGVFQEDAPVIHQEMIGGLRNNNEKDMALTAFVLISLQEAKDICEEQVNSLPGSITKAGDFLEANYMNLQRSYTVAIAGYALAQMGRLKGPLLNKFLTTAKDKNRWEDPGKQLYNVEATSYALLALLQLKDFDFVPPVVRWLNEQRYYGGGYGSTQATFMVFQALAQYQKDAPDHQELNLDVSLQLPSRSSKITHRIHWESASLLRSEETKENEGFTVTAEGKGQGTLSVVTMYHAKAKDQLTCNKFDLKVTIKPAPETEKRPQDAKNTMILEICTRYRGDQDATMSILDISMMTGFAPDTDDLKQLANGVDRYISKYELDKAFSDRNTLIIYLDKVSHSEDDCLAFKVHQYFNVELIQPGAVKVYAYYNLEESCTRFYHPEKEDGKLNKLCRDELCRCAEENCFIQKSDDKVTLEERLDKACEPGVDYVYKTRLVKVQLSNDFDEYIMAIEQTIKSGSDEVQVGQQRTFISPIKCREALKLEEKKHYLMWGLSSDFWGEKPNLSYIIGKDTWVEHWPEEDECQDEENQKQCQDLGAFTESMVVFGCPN
# testDescription: competitive ELISA, column 'Mu Ic50 (nM)'; format of paragraph 183: variant in solution competes with coated huCRIg(L)-LFH for C3b
assayReadout: IC50 (nM)
// return numeric value only (unit: nM, not printed)

Entry IRL23 (receptor, also called Q60I-Q64R/P45F) CRIg variant: RPILEVPESVTGPWKGDVNLPCTYDPLQGYTQVLVKWLVQRGSDFVTIFLRDSSGDHIQIAKYRGRLHVSHKVPGDVSLQLSTLEMDDRSHYTCEVTWQTPDGNQVVRDKITELRVQKHSSKLLKTKTEAPTTMTYPLKATSTVKQSWDWTTDMDGYLGETSAGPGK : reported IC50 = ?
31
